Data provenance is PubChem BioAssay.

Test summary: optical density change of DRC41 E. coli – strain DRC41, OD650, 24 h, E. coli filamentation project, primary screen (AID 1093);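 further: MC1000 strain lacking acrAB efflux and sulA so SOS filamentation is blocked; test concentration not given here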
Assay conditions: E. coli DRC41 growth, higher = more signal, called active from +8 up or from −8 down
Reported metric: z-score
Answer with a bare number; do not write a unit.

Worked examples follow.
Tell me the measured z-score of `COC(=O)[C@@]1(Cc2ccc(OC)cc2)[C@H]2c3cc(C(=O)N4CCCC4)n(Cc4nc5ccccc5[nH]4)c3C[C@H]2CN1C(=O)c1ccccc1` , please.
0.138

Please give the result for [N-]=[N+]=Nc1ccccc1C[C@]1(C(=O)NCC(O)CO)N=C(c2ccc(OCCCO)cc2)O[C@H]1c1ccccc1 (stereo partly specified) too.
0.291

What would you report for `CCOC(=O)C1=CC[C@@H](c2ccc(C(F)(F)F)cc2)N(S(=O)(=O)c2ccc(C)cc2)[C@H]1c1ccccc1` ?
-0.617

# repeat for `CC(=CC1CCCCC1)[C@@H](NC(=O)c1cccnc1)c1ccc(-c2ccccc2)cc1`
-2.18

Try the molecule `CN(C)CCCCNC(=O)[C@@H]1C[C@@H]2C(=O)N[C@@H](CCCCN)C(=O)N2[C@@H]1c1ccc(O)cc1`
0.813

Next up: `COCCCNC(=O)[C@@]1(Sc2ccc(C)cc2)CC(=O)N(Cc2ccccc2Cl)[C@@H]1c1ccc(CO)cc1`
-1.29

Others:
For `NCCCCCNC(=O)[C@H]1C[C@H]2C(=O)N[C@@H](Cc3ccccc3)C(=O)N2[C@H]1c1cccc(OCCO)c1` , what is its reported z-score?
0.631

Also `C=CCNC(=O)[C@H]1[C@@H]2C(=O)O[C@@H](c3ccccc3)[C@@H](c3ccccc3)N2[C@@H](c2ccc(O)cc2)[C@]12C(=O)Nc1ccc(C#CCCO)cc12` ?
0.515

Param item: CC1CC/C=C\[C@H]2OC34C=CCN(Cn5nnc6ccccc65)C(=O)[C@H]3N(CCCCCO)C(=O)[C@@H]4C2C(=O)O1 (stereo partly specified)
0.752

What would you report for `[N-]=[N+]=Nc1ccccc1C[C@]1(C(=O)NCc2ccccc2)N=C(c2ccc(OCCCO)cc2)O[C@H]1c1ccccc1N=[N+]=[N-]` ?
0.362

Try this molecule too: `CO[C@H]1O[C@H](CO)[C@@H](OC(=O)Nc2ccc(Br)cc2)[C@@H]2OC(=O)[C@H](Cc3cccc(Br)c3)C/C=C/C[C@@H](Cc3cccc(Br)c3)C(=O)O[C@@H]12`
1.26

What would you report for `C=C(CCCC)/C(=C/C[C@H](OC(C)=O)c1ccc(OCCO)cc1)c1cnc2ccccc2c1` ?
1

Next: `COCCOC(=O)N1C(=O)[C@@]2(c3ccccc31)[C@H](c1ccc(OCCO)cc1)N1[C@H](c3ccccc3)[C@H](c3ccccc3)OC(=O)[C@H]1[C@@H]2C(=O)N1CCc2cc(OC)c(OC)cc2C1`
0.0474

Okay, and `COCCOC(=O)N1C(=O)[C@@]2(c3cc(C#CCCO)ccc31)[C@H](c1ccc(OCCO)cc1)N1[C@H](c3ccccc3)[C@H](c3ccccc3)OC(=O)[C@H]1[C@@H]2C(N)=O` ?
0.719

Repeat for the following molecule: `Cc1ccc(S[C@]2(C(=O)NCC(C)C)CC(=O)N(Cc3cc(C(F)(F)F)cc(C(F)(F)F)c3)[C@@H]2c2ccc(CO)cc2)cc1`
-0.869

Same thing, different molecule: `COC(=O)[C@]1(CCC(=O)OC(C)(C)C)N=C(c2ccc(OCCCO)cc2)O[C@@H]1c1ccccc1`
2.85

Same thing, different molecule: O=C1NC(=O)C2C1C=CC(C(O)c1ccc(I)cc1)N2Nc1ccccn1 (stereo unspecified)
-0.956

Same question for `COC(=O)c1c2oc(c1C(=O)OC)C(=O)N[C@@H](C(C)C)Cn1cc(nn1)C1(CCCCC1)NC(=O)N[C@H](CO)CC2` please.
1.29
